Target chain: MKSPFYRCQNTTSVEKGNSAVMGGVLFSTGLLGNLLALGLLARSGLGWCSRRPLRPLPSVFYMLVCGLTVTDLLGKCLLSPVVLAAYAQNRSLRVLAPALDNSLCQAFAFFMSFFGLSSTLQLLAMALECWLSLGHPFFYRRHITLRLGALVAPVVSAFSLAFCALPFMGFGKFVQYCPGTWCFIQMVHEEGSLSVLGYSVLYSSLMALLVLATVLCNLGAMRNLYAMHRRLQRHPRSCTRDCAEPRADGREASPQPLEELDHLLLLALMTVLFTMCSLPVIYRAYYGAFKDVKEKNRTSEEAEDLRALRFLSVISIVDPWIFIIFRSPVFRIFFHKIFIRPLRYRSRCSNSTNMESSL
outcomeMeasure: IC50

# example entries with known answers
- compound: "COc1ccc(CC(=O)O)cc1Oc1ccc(NC(=O)c2ccc(C(F)(F)F)cc2)cc1CSCC(F)(F)F"
  IC50: "< 300 nM"
- compound: "COc1ccc(CC(=O)O)cc1Oc1ccc(NC(=O)C(C)(C)C)cc1CS(=O)(=O)C(C)(C)C"
  IC50: "< 300 nM"
- compound: "COc1ccc(CC(=O)O)cc1Oc1ccc(NC(=O)c2ccc(Cl)cc2)cc1CSc1ccccc1"
  IC50: "> 1000 nM"
- compound: "COc1ccc(CC(=O)O)cc1Oc1ccc(NC(=O)c2ccccc2)cc1CSC(C)(C)C"
  IC50: "< 300 nM"
- compound: "COc1ccc(CC(=O)O)cc1Oc1ccc(NC(=O)c2ccc(F)cc2)cc1CSC(C)(C)C"
  IC50: "< 300 nM"
- compound: "COc1ccc(CC(=O)O)cc1Oc1ccc(NC(=O)c2ccncc2)cc1CSCC(F)(F)F"
  IC50: "300 to 1000 nM"
- compound: "O=C(O)CCn1c2c(c3ccccc31)C[C@H](NS(=O)(=O)c1ccc(F)cc1)CC2 [Ramatroban, reference compound]"
  IC50: "> 1000 nM"
- compound: "COc1ccc(CC(=O)O)cc1Oc1ccc(NC(=O)c2cccc(F)c2)cc1CSC(C)(C)C"
  IC50: "< 300 nM"
- compound: "COc1ccc(CC(=O)O)cc1Oc1ccc(NC(=O)c2cccnc2)cc1CSCC(F)(F)F"
  IC50: "300 to 1000 nM"
- compound: "COc1ccc(CC(=O)O)cc1Oc1ccc(NC(=O)c2cc(Cl)cc(Cl)c2)cc1CSC(C)(C)C"
  IC50: "< 300 nM"

Note IC50 for the compound shown: COc1ccc(CC(=O)O)cc1Oc1ccc(NC(=O)C(C)(C)C)cc1CSCC(F)(F)F > 1000 nM

Consider the compound COc1ccc(CC(=O)O)cc1Oc1ccc(NC(=O)c2ccc(Cl)cc2)cc1CSCC(F)(F)F . State its measured IC50. > 1000 nM

Answer with the recorded IC50 for the compound listed here: COc1ccc(CC(=O)O)cc1Oc1ccc(NC(=O)c2ccc(Cl)cc2)cc1CSc1nnc(C)s1 > 1000 nM
